Where do these numbers come from? They come from PubChem BioAssay AID1645848.

conditions: buffer; pH 7.4; 6.0 h; 150.0 µM
Listed here: items and their measured solubility kinetic.
metric-name: solubility kinetic (µg/mL)

Cc1ccc(S(=O)(=O)Nc2cnccc2C(=O)Nc2nc(-c3ccccc3Cl)cs2)cc1; 0.005
CN(Cc1ccccc1)C(=O)c1ccc(S(=O)(=O)Nc2ccccc2)cc1; 22.5
CCOc1ccc(NC(=O)CSC2=Nc3ccccc3C3=NC(CC(=O)NCc4cccs4)C(=O)N23)cc1 (stereo not given); 23.8
Nc1nc2c(s1)C(c1cccc(F)c1F)CC(=O)N2 (stereo not given); 8.33

###

details: buffer; pH 7.4; 6.0 h; 150.0 µM
# cutoff 3 µg/mL applies to solubility kinetic; >= gives y, < gives n

CC1=C(C(=O)Nc2ccccc2)C(c2ccccc2Cl)N=C(Nc2nc3ccccc3o2)N1 (stereo unspecified); n
FC(F)(F)c1ccccc1-c1nc(NCc2ccc(-c3cccnc3)cc2)c2ccccc2n1; n
Fc1ccccc1CNCc1ccc(-c2ccnc3[nH]ccc23)cc1; y
COc1cc(-c2ccnc3c2c(C)nn3-c2cccc(C(F)(F)F)c2)ccc1O; y
O=C(Nc1nc(-c2ccccc2)cs1)c1ccncc1NS(=O)(=O)c1ccccc1; y
Cc1cccc(-n2ccc(=O)c(C(=O)Nc3ccc(S(=O)(=O)Nc4nccs4)cc3)n2)c1; n
CCOc1ccc(CCNC(=O)c2cc3ccccc3n2C)cc1OCC; n
O=C(CCCN1CCC(n2c(=O)[nH]c3ccccc32)CC1)c1ccc(F)cc1; y
CNc1nc(C#N)c(-c2cccc3ccccc23)o1; n
Cc1cnc(-c2ccccc2OC(C)C)nc1NCc1ccc(-n2ccnn2)cc1; y
Nc1ncnc2c1C(=O)N(c1ccc(C3CCC(CC(=O)O)CC3)cc1)CCO2 (stereo unspecified); y
COc1cc(NS(=O)(=O)c2ccc(C)cc2)c(C(=O)Nc2nc(-c3ccccc3)cs2)cc1OC; n
O=C(Nc1ccc(N2CCN(c3ncccc3C(F)(F)F)CC2)nc1)c1cccs1; n
CN1CCN(c2ccc(Nc3nc(-c4ccncc4)nc4ccccc34)cc2F)CC1; y
Cc1cc2ccccc2n1CC(=O)NC1CCCCC1; y
O=C(Nc1ccc(Cl)c(S(=O)(=O)N2CCOCC2)c1)c1ccccc1; n
N#Cc1ccccc1-c1csc(N2CCC(C(N)=O)CC2)n1; y
Nc1ncc(S(=O)(=O)N2CCN(c3ccccc3)CC2)cn1; n
CC[C@H]1CN2CCc3cc(OC)c(OC)cc3[C@@H]2C[C@@H]1C[C@H]1NCCc2cc(OC)c(OC)cc21; y
Cc1cc(C)c(CNC(=O)c2nc(-c3ccc(F)cc3)cc3c2ccn3C(C)C)c(=O)[nH]1; n

###

conditions: buffer; pH 7.4; 6.0 h; 150.0 µM
metric-name: solubility kinetic

CC1=C(C(=O)Nc2ccccc2)C(c2ccccc2Br)N=C(Nc2nc3ccccc3o2)N1 (configuration not stated); < 1 µg/mL
CCn1c(=O)cc(OCC(=O)N2CCN(c3cccc(Cl)c3)CC2)c2ccccc21; 2.64 µg/mL
CCS(=O)(=O)c1ncc(N(Cc2ccc(F)cc2)Cc2ccco2)c(C(=O)Nc2cc(C)ccc2C)n1; < 1 µg/mL
COc1ccc(CN2CCc3c(c(=O)n4ncc(C(=O)N5CCN(c6ccccc6OC)CC5)c4n3C)C2)cc1; 14.2 µg/mL
CS(=O)(=O)c1ccc(-c2cnc(NCc3ccco3)n3cnnc23)cc1; > 37 µg/mL
Cc1ccc(S(=O)(=O)Nc2cnccc2C(=O)Nc2nc(-c3ccncc3)cs2)cc1; > 67 µg/mL
Cc1ccnc(NC(=S)N2CCCC(Nc3cccc(C(F)(F)F)c3)C2)c1 (configuration not stated); 11.6 µg/mL
CC[C@H]1CN2CCC3CC(OC)C(OC)CC3[C@@H]2C[C@@H]1C[C@H]1NCCC2=C1CC(OC)=C(O)C2 (some centres not stated); 44.6 µg/mL
C=Cc1ccc(C(=O)N2CCCC(CCC(=O)N3CCN(c4ccccn4)CC3)C2)cc1 (configuration not stated); > 64 µg/mL
COc1cc(C2CC(=O)Nc3cc4c(cc32)OCCO4)cc(Br)c1OC (configuration not stated); < 1 µg/mL
Cc1ccc(NC(=O)c2cc(S(=O)(=O)NCCC3=CCCCC3)ccc2F)cc1F; < 1 µg/mL
COc1ccc(-c2csc(N3CCC(C(N)=O)CC3)n2)cc1; > 47 µg/mL
Cc1ccnc(NC(=S)N2CCN(c3ccc(Cl)cc3Cl)CC2)c1; 2.28 µg/mL
O=C(Nc1ccc2oc(-c3cccnc3)nc2c1)c1ccc(-c2cccc(Cl)c2)o1; 1.1 µg/mL
COc1ccc(S(=O)(=O)N2CCOCC2)cc1NC(=O)c1cccc(-n2cccc2)c1; 6.13 µg/mL
O=C(Nc1ccc(Cl)cc1)Nc1ccc(Cl)c(Cl)c1; < 1 µg/mL
COC(=O)CNC(=O)c1nc(-c2ccccc2OC)c2ccccn12; > 60 µg/mL
N#Cc1cc(-c2nc(Nc3ccc(F)c(F)c3)c3ccccc3n2)ccn1; < 1 µg/mL
Clc1ccccc1CSc1nc2ncc(Br)cc2[nH]1; < 1 µg/mL
CCCCCn1c(CCCNC(=O)c2ccccc2OC)nc2ccccc21; 32.3 µg/mL
O=C1CCCC2=C1C1(CCCC1)N=C(Nc1nc3cc(Cl)ccc3o1)N2; < 1 µg/mL
COCC(C)NCc1cc2ccc(OC)cc2nc1N1CCN(c2ccc(F)cc2)CC1 (configuration not stated); 39.5 µg/mL
COc1cccc(CN2CCCC(c3nc(-c4ccncc4)ncc3-c3ccccc3)C2)c1O (configuration not stated); 4.29 µg/mL
CN1CCCC1CCOC(c1cc2nccc(C(=O)O)c2[nH]1)c1ccccc1Cl (configuration not stated); > 61 µg/mL
CC1Oc2cc3c(-c4c(O)cc(O)c5c(O)c6c(cc45)OC(C)C(C)C6=O)c(O)cc(O)c3c(O)c2C(=O)C1C (configuration not stated); 53.5 µg/mL
O=C(Cc1ccc(Cl)c(Cl)c1)Nc1ccc([S+](=O)([O-])Nc2ccccn2)cc1; < 1 µg/mL
Clc1ccc2ncc(-c3cccc(NC4CNC4)n3)n2c1; > 44 µg/mL
NC(=O)C1CCN(c2ncc(-c3cccc(N4CCCC4)c3)s2)CC1; 11.6 µg/mL
CCOc1ccc(CCNC(=O)c2cc3ccccc3n2Cc2cccc(C)c2)cc1OCC; < 1 µg/mL
CC(=O)N1CCC(NC(=O)c2nc(-c3ccccc3)cc3[nH]ccc23)CC1; > 80 µg/mL
COc1ccc(NC(=O)c2[nH]c(C)c(C(C)=O)c2C)cc1; 35.3 µg/mL
CCOC(=O)C1CCN(C(=O)C2(NC(=O)Nc3ccccc3Cl)CCCC2)CC1; 41.8 µg/mL
Nc1nc2c(s1)C(c1ccc(Br)cc1)CC(=O)N2 (configuration not stated); 6.66 µg/mL
CC(C)c1ccc(CC(=O)N2CCCc3ncc(C(=O)Nc4cccnc4)cc32)cc1; 27.7 µg/mL
COc1cccc(CNc2ccc(S(=O)(=O)Nc3nc(C)c(C)s3)cc2)c1O; 1.83 µg/mL
CCOc1ccc(CCNC(=O)c2cc3sccc3n2C(C)C)cc1OCC; 1.62 µg/mL
Cc1ccc(S(=O)(=O)Nc2cc(F)ccc2C(=O)Nc2nc(-c3ccccc3)cs2)cc1; < 1 µg/mL
COc1cc(Cl)cn2c(-c3cccc(NC4CNC4)n3)cnc12; > 49 µg/mL
c1ccc(Nc2cc3c(cn2)CN(Cc2cccs2)CCN3)cc1; 42.8 µg/mL
O=C(Nc1ccc(OC(F)(F)F)cc1)c1sccc1NCc1ccnc2ccccc12; < 1 µg/mL
CN(C)C(=O)c1nc(-c2ccc(Cl)nc2)c2ccccn12; 27.6 µg/mL
COc1cccc(CNc2ccc(S(=O)(=O)Nc3ncc(-c4ccccc4)s3)cc2)c1O; 6.07 µg/mL

###

conditions: buffer; pH 7.4; 6.0 h; 150.0 µM
Listed here: items and their measured solubility kinetic.
metric-name: solubility kinetic

N#CC1(c2ccc(NC(=O)c3cccnc3NCc3ccncc3)cc2)CCCC1; < 1 µg/mL
Cc1ccc(S(=O)(=O)Nc2cc(Cl)ccc2C(=O)Nc2nc(-c3ccccc3)cs2)cc1; < 1 µg/mL
COc1cccc(C(=O)Nc2ccc3oc(-c4ccc5ccccc5c4)nc3c2)c1; < 1 µg/mL
O=C(CNC(=O)c1cnccn1)NC1CCCc2c1[nH]c1ccc(Cl)cc21 (stereo unspecified); 1.46 µg/mL
NC(=O)C1CCN(c2nc(-c3ccc4c(c3)CCO4)cs2)CC1; > 49 µg/mL
O=c1cc(N2CCOCC2)oc2c1ccc1ccccc12; 16.7 µg/mL
C[C@@]1(O)[C@H](O)[C@@H](CO)O[C@H]1n1ccc(N)nc1=O; > 38 µg/mL
O=C(Cc1ccccc1)Nc1ccc(S(=O)(=O)Nc2nccs2)cc1; > 55 µg/mL
CC(C)(C)c1ccc(-c2csc(N3CCC(C(N)=O)CC3)n2)cc1; < 1 µg/mL
Cc1csc2c1c(=O)n(O)c(=O)n2Cc1ccccc1; > 43 µg/mL
Cc1ccnc(NC(=O)C2CC(=O)N(c3n[nH]c4cc(Br)ccc34)C2)c1 (stereo unspecified); < 1 µg/mL
